- Test system: UO-31 renal
- protocol_description: NCI tumour cell line growth inhibition, 48 h; in the data active = GI50 below about 0.43 µM; inactive = the rest
Reply using exactly one outcome from t (active), f (inactive)

# example entries with known answers
| molecule | category_label |
| --- | --- |
| Cc1ncnc2c1ccn2[C@@H]1C[C@H](Oc2cc(C(F)F)c(F)c3c2CNCC3)[C@@H](O)[C@H]1O | f |
| C=C1CC[C@@](C)(c2cc(Br)c(C)cc2OC(C)=O)[C@H]1C | f |
| Cc1cc(NS(=O)(=O)c2ccc(-c3cnc(C4CC4)o3)cc2)ccc1Cl | f |

Prompt: Dear all, I need the recorded test outcome for N#Cc1ncc(-c2ccc(C(F)(F)F)cc2)c(NC2CCCCCC2)n1 , thank you.
Response: f

Prompt: For CC(=O)NC(CCc1ccc(Cl)c(Cl)c1)c1cccc(O)c(=O)c1 (stereo not drawn) , which call appears in the assay record?
Response: t

Prompt: Dear all, I need the recorded test outcome for Cc1cc2c(C(C)C)c(O)c(O)c(/C=N/O)c2c(O)c1-c1c(C)cc2c(C(C)C)c(O)c(O)c(/C=N/O)c2c1O , thank you.
Response: f

Prompt: Per the records of this test, what outcome belongs to CC(C)(Oc1cccc(N2CCC[C@@H](C(=O)N(Cc3ccc(-c4cn[nH]c4)cc3)C3CC3)C2)c1)C(=O)N1CCNCC1 ?
Response: f

Prompt: Test call, this molecule: N#C/C(=C\c1ccc(O)c(O)c1)C(=O)NCc1cccc(C(F)(F)F)c1
Response: f

Prompt: Hi, do you know how COc1ccc(-c2cc(-c3ccc(Cl)cc3)nc(SCCCC(=O)NO)n2)cc1OC came out in this test?
Response: t

Prompt: Tell me the recorded outcome of this test for Cn1cc(Nc2nccc(-c3ccc4c(c3)CN(C3COC3)CC[C@H]4NC(=O)c3cn(C(C)(C)C)nn3)n2)cn1 .
Response: f

----------
- System: SK-OV-3 ovarian
- protocol_description: NCI tumour cell line growth inhibition, 48 h; in the data active = GI50 below about 0.43 µM; inactive = the rest
A correct response names exactly one class from active, inactive

Prompt: How did this test come out for CC(=O)CCC[C@@H](C)[C@@H]1O[C@H]([C@@]2(C)CCC(=O)O2)CC2[C@H]1OC(=O)C21CC1 (stereo partly specified) ?
Response: inactive

Prompt: Per the assay record, what outcome was assigned to COc1cc(C2C=C(C)N=C3SC=C(C)N32)cc(OC)c1OC (stereo unspecified) ?
Response: inactive

Prompt: // return assay outcome for O=C(NNC1=NS(=O)(=O)c2ccccc2N1c1ccccc1)c1cnccn1
Response: inactive

Prompt: Could you kindly confirm the outcome this assay logged for N=C1C(c2nc3ccccc3c(=O)[nH]2)=C(O)CN1c1cccc(Cl)c1 ?
Response: inactive

Prompt: Per the assay record, what outcome was assigned to Cc1ccc2c(-c3ccnc(Nc4cccc(C(F)(F)F)c4)n3)c(-c3ccccc3)nn2n1 ?
Response: inactive

Prompt: Give the logged outcome of this assay for the following compound: O=C(Nc1nc2ccc(OC(F)(F)F)cc2s1)c1ccc(F)cc1
Response: inactive

Prompt: Assay result, entry CN1CCC(=C(c2ccc(Cl)cc2)c2ccccn2)CC1 — outcome?
Response: inactive

Prompt: Each compound tested received a call. Report the one for COC(=O)COc1ccccc1/C=C1/N=C(c2ccccc2)N(c2c(C)n(C)n(-c3ccccc3)c2=O)C1=O .
Response: inactive

Prompt: Tell me the assay call for Cc1cc2c3c(nc4ccccc42)C(=O)c2cccnc2-c3n1 please.
Response: active

Prompt: Dear all, I need the recorded test outcome for N#C/C(=C\c1ccc(O)c(O)c1)C(=O)NCc1cccc(C(F)(F)F)c1 , thank you.
Response: inactive

Prompt: Outcome logged for CCN(CC)Cc1cc(Nc2ccnc3ccc(OC)cc23)ccc1O in this assay:
Response: inactive
